Biological target: Glucose-6-phosphate 1-dehydrogenase (Homo sapiens)
Sequence (P11413 whole entry): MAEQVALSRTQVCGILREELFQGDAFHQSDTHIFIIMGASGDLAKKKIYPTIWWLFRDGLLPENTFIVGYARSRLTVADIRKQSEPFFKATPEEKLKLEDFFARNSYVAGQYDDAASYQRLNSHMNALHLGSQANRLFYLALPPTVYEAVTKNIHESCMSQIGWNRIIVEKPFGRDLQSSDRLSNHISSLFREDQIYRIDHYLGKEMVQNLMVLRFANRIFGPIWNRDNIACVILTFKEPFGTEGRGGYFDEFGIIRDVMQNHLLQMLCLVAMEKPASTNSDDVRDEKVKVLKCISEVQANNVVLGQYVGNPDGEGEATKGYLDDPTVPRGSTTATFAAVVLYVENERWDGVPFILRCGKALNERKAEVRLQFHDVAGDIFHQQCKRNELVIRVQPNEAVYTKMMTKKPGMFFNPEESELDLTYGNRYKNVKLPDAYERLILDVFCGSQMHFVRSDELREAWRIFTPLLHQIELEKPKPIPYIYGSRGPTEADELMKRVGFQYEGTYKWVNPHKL
Test: Competitive inhibition of G6PD (unknown origin) using glucose-6-phosphate and varying concentrations of NADP+ as substrate by Michaelis-Menten analysis
assay_metric: pKi
Answers are plain numbers, as −log10 of the molar value.

Input line: # query: pKi of entry "COc1cc(O)c2c(c1)oc(=O)c1c3cc(O)c(O)cc3oc21"
Output line: 5.92
